Conditions: in acetonitrile, 313.15 K
Recorded endpoint: solubility (mole fraction)
Field format: numeric only.

Problem: Requested read-out: solubility (mole fraction). Entry: Cc1cnc(C(=O)O)cn1
Solution: 7.79e-06

====

Details: in acetone, 298.15 K
Recorded endpoint: solubility (mole fraction)

Problem: Find the recorded solubility (mole fraction) belonging to Cc1cnc(C(=O)O)cn1 and report it.
Solution: 1.39e-05

====

Conditions: in n-butanol, 308.15 K
Recorded endpoint: solubility (mole fraction)
Enter a number only.

Problem: Bench note: what solubility (mole fraction) did Cc1cnc(C(=O)O)cn1 show?
Solution: 2.51e-05

====

Conditions: in water, 288.15 K
Recorded endpoint: solubility (mole fraction)
Give the figure only, with no unit attached.

Problem: Value lookup for solubility (mole fraction); key = Cc1cnc(C(=O)O)cn1
Solution: 5.16e-06

====

Details: in 2-butanone, 278.15 K
Recorded endpoint: solubility (mole fraction)
Just the number, please, no unit attached.

Problem: So what's the measured solubility (mole fraction) for this one? Cc1cnc(C(=O)O)cn1
Solution: 6.8e-06

====

Details: in methanol, 293.15 K
Recorded endpoint: solubility (mole fraction)

Problem: Need solubility (mole fraction), item Cc1cnc(C(=O)O)cn1
Solution: 1.56e-05

====

Details: in 2-butanone, 308.15 K
Recorded endpoint: solubility (mole fraction)
Write the number on its own, no unit after it.

Problem: If you can, please state the reported solubility (mole fraction) value of Cc1cnc(C(=O)O)cn1 .
Solution: 1.58e-05

====

Conditions: in n-propanol, 288.15 K
Recorded endpoint: solubility (mole fraction)

Problem: What value of solubility (mole fraction) has been reported for the following compound? Cc1cnc(C(=O)O)cn1
Solution: 1.58e-05

====

Settings: in acetonitrile, 308.15 K
Recorded endpoint: solubility (mole fraction)
// return a plain number; no unit text

Problem: Query (compound): Cc1cnc(C(=O)O)cn1 ; field requested: solubility (mole fraction)
Solution: 6.88e-06

====

Settings: in n-propanol, 303.15 K
Recorded endpoint: solubility (mole fraction)
Just the number, please, no unit attached.

Problem: I have this molecule here, Cc1cnc(C(=O)O)cn1 , and I need its recorded solubility (mole fraction).
Solution: 2.34e-05

====

Conditions: in ethyl acetate, 313.15 K
Recorded endpoint: solubility (mole fraction)
Lab note: record just the number, no unit beside it.

Problem: Data request, read-out solubility (mole fraction), for Cc1cnc(C(=O)O)cn1
Solution: 1.2e-05

====

Conditions: in ethanol, 308.15 K
Recorded endpoint: solubility (mole fraction)
Write the value as a bare number.

Problem: solubility (mole fraction) for Cc1cnc(C(=O)O)cn1 ?
Solution: 2.93e-05

====

Settings: in acetone, 278.15 K
Recorded endpoint: solubility (mole fraction)
Just the number, please, no unit attached.

Problem: If you can, please state the reported solubility (mole fraction) value of Cc1cnc(C(=O)O)cn1 .
Solution: 8e-06

====

Conditions: in ethanol, 278.15 K
Recorded endpoint: solubility (mole fraction)
Field format: numeric only.

Problem: Please give the measured solubility (mole fraction) for this molecule: Cc1cnc(C(=O)O)cn1
Solution: 1.27e-05

====

Settings: in acetone, 293.15 K
Recorded endpoint: solubility (mole fraction)
// return just the number, without any unit appended

Problem: Query (compound): Cc1cnc(C(=O)O)cn1 ; field requested: solubility (mole fraction)
Solution: 1.21e-05

====

Conditions: in acetonitrile, 288.15 K
Recorded endpoint: solubility (mole fraction)
Reply with just the number.

Problem: What does the record list as solubility (mole fraction) for Cc1cnc(C(=O)O)cn1 ?
Solution: 4.01e-06

====

Details: in n-propanol, 308.15 K
Recorded endpoint: solubility (mole fraction)
Enter the number alone.

Problem: For Cc1cnc(C(=O)O)cn1 , what is its reported solubility (mole fraction)?
Solution: 2.68e-05

====

Conditions: in ethyl acetate, 298.15 K
Recorded endpoint: solubility (mole fraction)

Problem: Which solubility (mole fraction) is listed for Cc1cnc(C(=O)O)cn1 ?
Solution: 8.4e-06

====

Details: in ethyl acetate, 288.15 K
Recorded endpoint: solubility (mole fraction)
Lab note: record the figure alone, no unit after it.

Problem: What does the data say about its solubility (mole fraction)? Entry: Cc1cnc(C(=O)O)cn1
Solution: 6.63e-06

====

Conditions: in 2-butanone, 313.15 K
Recorded endpoint: solubility (mole fraction)
Form: value (number only, do not type unit).

Problem: Fill blank: measured solubility (mole fraction) of the molecule Cc1cnc(C(=O)O)cn1 is ____.
Solution: 1.79e-05

====

Details: in acetone, 273.15 K
Recorded endpoint: solubility (mole fraction)
Reply with just the number.

Problem: Requested field: solubility (mole fraction). Item: Cc1cnc(C(=O)O)cn1
Solution: 6.7e-06

====

Settings: in ethyl acetate, 308.15 K
Recorded endpoint: solubility (mole fraction)
API doc: respond with a numeric literal and nothing else, no unit.

Problem: Can you look up the measured solubility (mole fraction) of Cc1cnc(C(=O)O)cn1 for me?
Solution: 1.07e-05

====

Conditions: in methanol, 288.15 K
Recorded endpoint: solubility (mole fraction)
The answer should be written as a number, with no unit following it.

Problem: Need solubility (mole fraction) of Cc1cnc(C(=O)O)cn1 , thanks.
Solution: 1.36e-05

====

Details: in acetonitrile, 303.15 K
Recorded endpoint: solubility (mole fraction)
Enter the number alone.

Problem: So what's the measured solubility (mole fraction) for this one? Cc1cnc(C(=O)O)cn1
Solution: 6.05e-06

====

Settings: in isopropanol, 283.15 K
Recorded endpoint: solubility (mole fraction)
Give the figure only, with no unit attached.

Problem: Would you mind telling me what solubility (mole fraction) value was observed for Cc1cnc(C(=O)O)cn1 ?
Solution: 1.04e-05

====

Conditions: in acetone, 288.15 K
Recorded endpoint: solubility (mole fraction)
Just the number, please.

Problem: Entry Cc1cnc(C(=O)O)cn1 has what solubility (mole fraction)?
Solution: 1.07e-05

====

Conditions: in acetonitrile, 293.15 K
Recorded endpoint: solubility (mole fraction)
A bare number is all that is needed in reply.

Problem: Entry under review: Cc1cnc(C(=O)O)cn1 . Reported solubility (mole fraction)?
Solution: 4.6e-06

====

Settings: in water, 303.15 K
Recorded endpoint: solubility (mole fraction)
Keep the answer to the number alone.

Problem: So what's the measured solubility (mole fraction) for this one? Cc1cnc(C(=O)O)cn1
Solution: 7.7e-06

====

Conditions: in acetonitrile, 298.15 K
Recorded endpoint: solubility (mole fraction)
Lab note: record the figure alone, no unit after it.

Problem: Given the entry Cc1cnc(C(=O)O)cn1 , report its measured solubility (mole fraction).
Solution: 5.34e-06

====

Details: in toluene, 293.15 K
Recorded endpoint: solubility (mole fraction)
Form: value (number only, do not type unit).

Problem: Find the recorded solubility (mole fraction) belonging to Cc1cnc(C(=O)O)cn1 and report it.
Solution: 1.65e-06

====

Settings: in ethanol, 298.15 K
Recorded endpoint: solubility (mole fraction)
The answer should be written as a number, with no unit following it.

Problem: # lookup: solubility (mole fraction) of Cc1cnc(C(=O)O)cn1
Solution: 2.25e-05

====

Settings: in methanol, 303.15 K
Recorded endpoint: solubility (mole fraction)
// no unit string in output, number only

Problem: Given the entry Cc1cnc(C(=O)O)cn1 , report its measured solubility (mole fraction).
Solution: 2.01e-05

====

Settings: in n-butanol, 313.15 K
Recorded endpoint: solubility (mole fraction)
Lab note: jot down the number only; don't add units.

Problem: What measured solubility (mole fraction) goes with Cc1cnc(C(=O)O)cn1 ?
Solution: 2.87e-05

====

Conditions: in ethyl acetate, 278.15 K
Recorded endpoint: solubility (mole fraction)
Please respond with just the number, no unit label.

Problem: Entry under review: Cc1cnc(C(=O)O)cn1 . Reported solubility (mole fraction)?
Solution: 5.04e-06

====

Conditions: in 2-butanone, 283.15 K
Recorded endpoint: solubility (mole fraction)
// no unit string in output, number only

Problem: Looking for the measured solubility (mole fraction) of Cc1cnc(C(=O)O)cn1 , can you help?
Solution: 8e-06

====

Details: in 1,4-dioxane, 288.15 K
Recorded endpoint: solubility (mole fraction)

Problem: Dear colleague, I am looking for the recorded solubility (mole fraction) of the following molecule: Cc1cnc(C(=O)O)cn1
Solution: 1.88e-05
